B1: PTPLAD1 (parent)
chain: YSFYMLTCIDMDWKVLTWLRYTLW

variants of: B1; assay: protein stability index of a GFP-peptide fusion (GPS, HEK-293T) (PSI 1-6); higher = more stable; settings: c terminus: a fixed tail appended;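 note: lentivirally expressed fusions sorted by FACS into six bins by GFP to DsRed ratio, PSI derived from sequencing read proportions per bin multiplied by bin number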
A collection of variants and their measured protein stability index
Form rule: numeric answer, no unit written next to it.

These solved cases illustrate the format of a correct answer.
[[record]]
alteration = "L16W"
measuredresult = 3.38

[[record]]
alteration = "Y1M"
measuredresult = 3.57

[[record]]
alteration = "W24R"
measuredresult = 2.04


Bench note: what protein stability index did T7R show?
2.4

FYI, the data here is from the supplement of paper PMC10567573.
